Reported Kd values, ROS1 (Homo sapiens (Human), UniProt P08922).
ASSAY READOUT: Kd (nM)

| MOLECULE | Kd, nM |
| --- | --- |
| Cc1nn2ccc3nc2c1C(=O)NCCOc1ccc(F)cc1CN3C | 410 |

[1] CC1Oc2ccn3ncc(c3n2)C(=O)NCCOc2ccc(F)c(Cl)c21 (stereo not shown)
[2] CN1Cc2cc(F)ccc2OCCNC(=O)c2cnn3ccc1nc23
**Query** Out of 1 and 2 , name the one with the higher Kd. When you have decided, please share the label of that item.
**Result** 1

---

Parameter pIC50: see the listing below.
# Tested on: Essential thrombocythemia cell line SET-2 cells (harboring endogenous JAK2 point mutation)
# EXPERIMENT SUMMARY: SET-2 cell proliferation assay (CellTiter-Glo)
# Type: cell-based
# CONDITION: Homo sapiens, 72 hours incubation, read-out: SET2 cell proli. IC50
In simple prose, pIC50 is minus the logarithm base ten of a concentration in moles per litre.

| MOLECULE | OBSERVED MEASUREMENT |
| --- | --- |
| CC1COc2ccc(F)cc2CN(C)c2ccn3ncc(c3n2)C(=O)N1 (stereo not drawn) | 5.22 |

Now take the following molecule into account.
**Query** Hello, please tell me recorded pIC50 for this one: C[C@@H]1COc2ccc(F)cc2[C@@H](C)Nc2ccn3ncc(c3n2)C(=O)N1
**Result** 6.66
